targetOrTestSystem: T1, full length recombinant human 2N4R tau (human, UniProt P10636 1-758)
T1 construct: bought from rPeptide; pHrodo Red maleimide-labelled where it stands in uptake assays; also called tau1-441; full length tau
T1 sequence (P10636 other isoform, or with tags, fused parts or gaps limits assumed): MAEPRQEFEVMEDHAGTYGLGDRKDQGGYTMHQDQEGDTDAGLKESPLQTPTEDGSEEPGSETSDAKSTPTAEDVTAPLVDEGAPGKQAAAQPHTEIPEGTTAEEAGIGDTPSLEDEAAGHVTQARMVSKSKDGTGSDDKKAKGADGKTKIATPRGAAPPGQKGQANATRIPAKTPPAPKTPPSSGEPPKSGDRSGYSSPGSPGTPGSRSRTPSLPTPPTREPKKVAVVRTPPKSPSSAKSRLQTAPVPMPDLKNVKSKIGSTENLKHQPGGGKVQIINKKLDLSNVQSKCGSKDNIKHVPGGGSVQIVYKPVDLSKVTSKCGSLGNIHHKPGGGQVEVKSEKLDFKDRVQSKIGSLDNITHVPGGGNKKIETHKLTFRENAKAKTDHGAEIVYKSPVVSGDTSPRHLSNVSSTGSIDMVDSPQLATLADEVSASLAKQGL
testDetails: SPR SCK, IgG on Protein A, tau in flow
Give t when the value for Fold change (KD, to pVH/pVL) is at least 1. Give f when it is less.

binder | group
#44_VH4VK4_H06-H01/pVL (antibody, V domains shown, also called H06-01/pVL; Clone VH4H_06_H01) VH: QVQLQESGPGLVKPSETLSLTCTVSGIDLSSYAMAWVRQAPGKGLEWIGVIDAAGHTFYASWVKGRFTISKDTSKTTVDLQMTSLTAEDTATYFCARDVGSFDVWGQGTLVTVSS VL: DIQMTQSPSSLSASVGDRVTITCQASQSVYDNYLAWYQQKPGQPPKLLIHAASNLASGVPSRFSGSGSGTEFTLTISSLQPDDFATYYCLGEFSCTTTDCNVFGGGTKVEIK | t
#44_VH4VK4_H06/pVL (antibody, V domains shown, also called Clone VH4_H06; #44_VH4_H06) VH: QVQLQESGPGLVKPSETLSLTCTVSGIDLSSYAMAWVRQAPGKGLEWIGVIDAAGHTFYASWVKGRFTISKDTSKTTVDLQMTSLTAEDTATYFCARDSGTFDPWGQGTLVTVSS VL: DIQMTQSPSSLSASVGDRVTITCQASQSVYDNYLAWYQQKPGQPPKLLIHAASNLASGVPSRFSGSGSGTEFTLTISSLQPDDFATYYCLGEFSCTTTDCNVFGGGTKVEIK | t
#44_VH4VK4_H11/pVL (antibody, V domains shown, also called Clone VH4_H11; #44_VH4_H11) VH: QVQLQESGPGLVKPSETLSLTCTVSGIDLSSYAMAWVRQAPGKGLEWIGAIDARGATFYASWVKGRFTISKDTSKTTVDLQMTSLTAEDTATYFCARDSGAFDPWGQGTLVTVSS VL: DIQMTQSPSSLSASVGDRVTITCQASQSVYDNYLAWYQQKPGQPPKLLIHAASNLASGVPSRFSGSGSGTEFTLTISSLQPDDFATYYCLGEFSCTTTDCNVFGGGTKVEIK | t
#44_VH4VK4_H09/pVL (antibody, V domains shown, also called Clone VH4_H09; #44_VH4_H09) VH: QVQLQESGPGLVKPSETLSLTCTVSGIDLSSYAMAWVRQAPGKGLEWIGAIDARGNTFYASWVKGRFTISKDTSKTTVDLQMTSLTAEDTATYFCARDSGAFDPWGQGTLVTVSS VL: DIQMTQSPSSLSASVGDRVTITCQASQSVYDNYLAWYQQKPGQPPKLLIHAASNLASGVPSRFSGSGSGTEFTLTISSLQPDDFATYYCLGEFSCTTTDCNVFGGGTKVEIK | f
#44_VH4_H06/L2 (antibody, V domains shown, also called Clone VH4_H06/L2) VH: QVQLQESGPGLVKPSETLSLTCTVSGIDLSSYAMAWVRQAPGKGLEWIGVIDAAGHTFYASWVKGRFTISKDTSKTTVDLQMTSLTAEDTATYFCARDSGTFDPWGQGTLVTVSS VL: DIQMTQSPSSLSASVGDRVTITCQASQSVYDNYLAWYQQKPGQPPKLLIHAASNLASGVPSRFSGSGSGTEFTLTISSLQPDDFATYYCLGEFSCQDTDCNVFGGGTKVEIKR | t
#44_VH4_H09/L2 (antibody, V domains shown, also called Clone VH4_H09/L2) VH: QVQLQESGPGLVKPSETLSLTCTVSGIDLSSYAMAWVRQAPGKGLEWIGAIDARGNTFYASWVKGRFTISKDTSKTTVDLQMTSLTAEDTATYFCARDSGAFDPWGQGTLVTVSS VL: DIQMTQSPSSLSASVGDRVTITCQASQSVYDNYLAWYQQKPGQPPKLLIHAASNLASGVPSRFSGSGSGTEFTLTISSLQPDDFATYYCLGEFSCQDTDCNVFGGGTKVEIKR | f
#44_VH4VK4_H07/pVL (antibody, V domains shown, also called Clone VH4_H07; #44_VH4_H07) VH: QVQLQESGPGLVKPSETLSLTCTVSGIDLSSYAMAWVRQAPGKGLEWIGAIDAAGNTFYASWVKGRFTISKDTSKTTVDLQMTSLTAEDTATYFCARDSGAFDPWGQGTLVTVSS VL: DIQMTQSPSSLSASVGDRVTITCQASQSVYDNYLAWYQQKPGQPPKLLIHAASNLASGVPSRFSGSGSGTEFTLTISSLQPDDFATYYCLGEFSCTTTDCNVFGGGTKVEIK | f
#44_VH4VK4_H15/pVL (antibody, V domains shown, also called Clone VH4_H15; #44_VH4_H15) VH: QVQLQESGPGLVKPSETLSLTCTVSGIDLSSYAMAWVRQAPGKGLEWIGAIDSVGNTFYASWVKGRFTISKDTSKTTVDLQMTSLTAEDTATYFCARDSGAFDPWGQGTLVTVSS VL: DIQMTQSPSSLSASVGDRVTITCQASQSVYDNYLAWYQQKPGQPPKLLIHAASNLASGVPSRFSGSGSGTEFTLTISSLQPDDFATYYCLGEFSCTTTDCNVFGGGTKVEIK | f
#44_VH4VK4_H16/pVL (antibody, V domains shown, also called Clone VH4_H16; #44_VH4_H16) VH: QVQLQESGPGLVKPSETLSLTCTVSGIDLSSYAMAWVRQAPGKGLEWIGAIDRAGNTFYASWVKGRFTISKDTSKTTVDLQMTSLTAEDTATYFCARDSGAFDPWGQGTLVTVSS VL: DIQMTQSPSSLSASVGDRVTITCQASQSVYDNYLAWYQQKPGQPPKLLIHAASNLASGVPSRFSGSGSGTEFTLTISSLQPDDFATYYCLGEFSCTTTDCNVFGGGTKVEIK | f

Just for reference, patent US20250270301A1 is where these values come from.
